Can you tell me ABSOLUTE BASOPHIL for the items I'm about to list?
species: Rattus norvegicus; format: toxicity, organism-based, Sprague-Dawley; details: in vivo, po, 0 mg/kg, 24 h, vehicle control, tissue Blood, route oral GAVAGE, dose level Control, time 1 day, […]
Description: DrugMatrix - Regimen: Single
Give bare numbers, in cells/µL.

[[record]]
compound = "CC(CCc1ccc(O)cc1)NCCc1ccc(O)c(O)c1 (configuration not stated) [DOBUTAMINE]"
reported_endpoint = "ABSOLUTE BASOPHIL"
u = "cells/µL"
data_value = 46.7


The record that follows has no ABSOLUTE BASOPHIL shown yet.
Prompt: Report measured ABSOLUTE BASOPHIL; entry is CC[C@H](C)C(=O)O[C@H]1C[C@H](O)C=C2C=C[C@H](C)[C@H](CC[C@@H](O)C[C@@H](O)CC(=O)O)[C@H]21 [PRAVASTATIN]
Completion: 50

* * *

organism: Rattus norvegicus; assay: DrugMatrix - Regimen: Daily Repeat; type: toxicity, organism-based, Sprague-Dawley; set-up: regimen Daily Repeat, gender Male, age 6-8 weeks; details: in vivo, po, 80 mg/kg, 2184 h, tissue Blood, route oral GAVAGE, dose level Low, time 91 day, vehicle .5 % CMC
reported-endpoint: ABSOLUTE SEGMENTED NEUTROPHIL (cells/µL)
Answers are plain numbers, in cells/µL.

Prompt: Determine its reported ABSOLUTE SEGMENTED NEUTROPHIL: `O=c1cc(-c2ccccc2)oc2ccc3ccccc3c12`
Completion: 3040

* * *

species: Rattus norvegicus; assay: DrugMatrix - Regimen: Daily Repeat; assay type: toxicity, organism-based, Sprague-Dawley; parameters: regimen Daily Repeat, gender Male, age 6-8 weeks; conditions: in vivo, po, 0 mg/kg, 120 h, tissue Plasma, route oral GAVAGE, dose level Control, time 5 day, vehicle .5 % CMC
Give ALBUMIN for every item shown.
Give bare numbers, in G/DL.

# count of solved cases: 2
[[record]]
molecule = "C[C@@H](O)[C@H]1C(=O)N2C(C(=O)O)=C(S[C@@H]3CN[C@H](C(=O)N(C)C)C3)[C@H](C)[C@H]12 [MEROPENEM]"
data_value = 4.38

[[record]]
molecule = "CC(=O)O[C@]1(C(C)=O)CC[C@H]2[C@@H]3C=C(Cl)C4=CC(=O)[C@@H]5C[C@@H]5[C@]4(C)[C@H]3CC[C@@]21C [CYPROTERONE ACETATE]"
data_value = 4.27


Note: attention shifts to another entry.
Prompt: Provide ALBUMIN value for the following molecule: CC(C)(Sc1cc(C(C)(C)C)c(O)c(C(C)(C)C)c1)Sc1cc(C(C)(C)C)c(O)c(C(C)(C)C)c1 [PROBUCOL]
Completion: 4.38

* * *

organism: Rattus norvegicus; assay: DrugMatrix - Regimen: Daily Repeat; format: toxicity, organism-based, Sprague-Dawley; design: regimen Daily Repeat, gender Male, age 6-8 weeks; conditions: in vivo, po, 1500 mg/kg, 72 h, tissue Blood, route oral GAVAGE, dose level High, time 3 day, vehicle .5 % CMC
reported-endpoint: EOSINOPHIL (%)
Numbers only, in %.

Below, each entry is followed by its recorded EOSINOPHIL result.
[[record]]
molecule = "O=c1cc(-c2ccccc2)oc2ccc3ccccc3c12"
data_value = 0.7

[[record]]
molecule = "CCOC(=O)[C@H](CCc1ccccc1)N[C@@H](C)C(=O)N1CCC[C@H]1C(=O)O"
data_value = 0.33

[[record]]
molecule = "CC(C)(Sc1cc(C(C)(C)C)c(O)c(C(C)(C)C)c1)Sc1cc(C(C)(C)C)c(O)c(C(C)(C)C)c1"
data_value = 1.33

[[record]]
molecule = "Nc1nc2c(c(=O)[nH]1)N(C=O)C(CNc1ccc(C(=O)N[C@@H](CCC(=O)O)C(=O)O)cc1)CN2 (stereo not given in full)"
data_value = 0


Kindly review the next molecule as well.
Prompt: Annotate the molecule `C[C@@H](O)[C@H]1C(=O)N2C(C(=O)O)=C(S[C@@H]3CN[C@H](C(=O)N(C)C)C3)[C@H](C)[C@H]12` with its measured EOSINOPHIL.
Completion: 1.33

* * *

species: Rattus norvegicus; assay: DrugMatrix - Regimen: Daily Repeat; type: toxicity, organism-based, Sprague-Dawley; design: regimen Daily Repeat, gender Male, age 6-8 weeks; conditions: in vivo, po, 0 mg/kg, 120 h, tissue Plasma, route oral GAVAGE, dose level Control, time 5 day, […]
Please provide measured CREATININE for the entries that follow.
Answer with the value and then the unit.

Worked examples follow.
[[record]]
compound_string = "OCCN1CCN(CCCN2c3ccccc3Sc3ccc(C(F)(F)F)cc32)CC1"
data_value = "0.19 mg/dL"

[[record]]
compound_string = "COc1ncnc(NS(=O)(=O)c2ccc(N)cc2)c1OC"
data_value = "0.2 mg/dL"

[[record]]
compound_string = "CCn1cc(C(=O)O)c(=O)c2cc(F)c(N3CCNCC3)nc21"
data_value = "0.37 mg/dL"

[[record]]
compound_string = "CC[C@H](C)C(=O)O[C@H]1C[C@@H](C)C=C2C=C[C@H](C)[C@H](CC[C@@H]3C[C@@H](O)CC(=O)O3)[C@H]21"
data_value = "0.29 mg/dL"


Prompt: Provide one value: measured CREATININE of `CC(C)Cc1ccc(CC(=O)O)cc1`
Completion: 0.18 mg/dL

* * *

species on record: Rattus norvegicus; experiment: DrugMatrix - Regimen: Daily Repeat; type: toxicity, organism-based, Sprague-Dawley; parameters: regimen Daily Repeat, gender Male, age 6-8 weeks; details: in vivo, po, 0 mg/kg, 120 h, tissue Plasma, route oral GAVAGE, dose level Control, time 5 day, vehicle 100 % WATER
reported-endpoint: PHOSPHORUS (mg/dL)
One number for each entry, in mg/dL.

Please review the entries below; each comes with its answer.
[[record]]
compound = "O=P1(N(CCCl)CCCl)NCCCO1 (configuration not stated) [CYCLOPHOSPHAMIDE ANHYDROUS]"
reported_endpoint = "PHOSPHORUS"
data_value = 10.13

[[record]]
compound = "CCCCCCCCCCCCCCCC[n+]1ccccc1.[Br-]"
reported_endpoint = "PHOSPHORUS"
data_value = 11.65


Parameter requested: PHOSPHORUS. Apply to each item below.
1. Nc1ccc(S(=O)(=O)Nc2ncccn2)cc1
2. CN1C2CCCC1CC(NC(=O)c1nn(C)c3ccccc13)C2 (configuration not stated)
3. CC[C@H]1OC(=O)[C@H](C)[C@@H](O[C@H]2C[C@@](C)(OC)[C@@H](O)[C@H](C)O2)[C@H](C)[C@@H](O[C@@H]2O[C@H](C)C[C@H](N(C)C)[C@H]2O)[C@](C)(OC)C[C@@H](C)C(=O)[C@H](C)[C@@H](O)[C@]1(C)O
4. CCN(CC)CC#CCOC(=O)C(O)(c1ccccc1)C1CCCCC1 (configuration not stated)
5. Cc1c(N(C)CS(=O)(=O)[O-])c(=O)n(-c2ccccc2)n1C.[Na+] [DIPYRONE SODIUM]
6. O=C(O)c1cc(=O)c2c(OCC(O)COc3cccc4oc(C(=O)O)cc(=O)c34)cccc2o1

Completion:
[11.28, 10.73, 10.6, 10.68, 11.52, 10.1]

For the 3 compounds below, give their PHOSPHORUS values.
1. CCCc1nn(C)c2c(=O)[nH]c(-c3cc(S(=O)(=O)N4CCN(C)CC4)ccc3OCC)nc12
2. CC[C@H]1OC(=O)[C@H](C)[C@@H](O[C@H]2C[C@@](C)(OC)[C@@H](O)[C@H](C)O2)[C@H](C)[C@@H](O[C@@H]2O[C@H](C)C[C@H](N(C)C)[C@H]2O)[C@](C)(O)C[C@@H](C)CN(C)[C@H](C)[C@@H](O)[C@]1(C)O
3. CCN[C@@H](C)Cc1cccc(C(F)(F)F)c1

Completion:
10.78
10.63
11.28

Please give PHOSPHORUS for each item listed below.
1. O=C(O)c1cccnc1
2. CNS(=O)(=O)Cc1ccc2[nH]cc(CCN(C)C)c2c1
3. OCCO
4. CCOC(N)=O
5. Nc1ccc(S(=O)(=O)Nc2nccs2)cc1

Completion:
[12.03, 10.38, 10.78, 11.35, 10.73]

Prompt: Return PHOSPHORUS for the following compound: `CC(C)(C)NC[C@H](O)COc1nsnc1N1CCOCC1`
Completion: 10.73

* * *

species on record: Rattus norvegicus; test: DrugMatrix - Regimen: Daily Repeat; format: toxicity, organism-based, Sprague-Dawley; parameters: regimen Daily Repeat, gender Male, age 6-8 weeks; conditions: in vivo, po, 0 mg/kg, 120 h, tissue Plasma, route oral GAVAGE, dose level Control, time 5 day, vehicle .5 % CMC
reported-endpoint: CREATININE (mg/dL)
One number for each entry, in mg/dL.

[[record]]
compound_string = "C[C@]12C/C(=C/O)C(=O)C[C@@H]1CC[C@@H]1[C@@H]2CC[C@@]2(C)[C@H]1CC[C@]2(C)O"
u = "mg/dL"
data_value = 0.57

[[record]]
compound_string = "CC[C@]1(O)CC[C@H]2[C@@H]3CCC4=CCCC[C@@H]4[C@H]3CC[C@@]21C"
u = "mg/dL"
data_value = 0.47

[[record]]
compound_string = "C=C(CC)C(=O)c1ccc(OCC(=O)O)c(Cl)c1Cl"
u = "mg/dL"
data_value = 0.75


Prompt: Specify reported CREATININE for the compound shown: `CO[C@H]1C[C@@H]2CC[C@@H](C)[C@@](O)(O2)C(=O)C(=O)N2CCCC[C@H]2C(=O)O[C@H]([C@H](C)C[C@@H]2CC[C@@H](O)[C@H](OC)C2)CC(=O)[C@H](C)/C=C(\C)[C@@H](O)[C@@H](OC)C(=O)[C@H](C)C[C@H](C)/C=C/C=C/C=C/1C`
Completion: 0.21
